Taken from the Human Domainome abundance scans (Beltran et al. 2025).

B1: Protein S100-G, residues 1 to 79; numbered along this chain, P02633 (parent)
chain: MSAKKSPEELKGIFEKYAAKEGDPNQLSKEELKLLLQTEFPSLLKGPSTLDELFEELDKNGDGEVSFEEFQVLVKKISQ

# Variants of: B1
# EXPERIMENTAL DETAILS: abundance fitness (aPCA) (normalised: wild type 0, dead -1); higher = more abundant; growth selection in yeast, the domain comes from the species named
# CONDITION DESCRIPTION: Bos taurus
READOUT KIND: abundance fitness

q: Return reported abundance fitness; argument: MSAKKSPEELKGIFEKYAAKEGDPNQLSKECLKLLLQTEFPSLLKGPSTLDELFEELDKNGDGEVSFEEFQVLVKKISQ [E31C]
a: -0.153

q: Same for MSAKKSPEELKGIFEKYAAKEGDPNQLSKEELKLLLQTEFPSLLKGPSTLDEGFEELDKNGDGEVSFEEFQVLVKKISQ [L53G]
a: -0.065

q: Also check MSAKKSPEELKGIFEKYAAKEGDPNQLSKEELKLLLQTEFPSLLKGPSTLDELFEELDKNGHGEVSFEEFQVLVKKISQ [D62H]
a: -0.045

q: Ok, now MSAKKSPEELKGIFEKYAAKEGDPNQLSKEELKLLLQIEFPSLLKGPSTLDELFEELDKNGDGEVSFEEFQVLVKKISQ [T38I]
a: -0.004

q: MSAKKSPWELKGIFEKYAAKEGDPNQLSKEELKLLLQTEFPSLLKGPSTLDELFEELDKNGDGEVSFEEFQVLVKKISQ [E8W] ?
a: -0.243

q: Continue with MSAKKSPEELKGIQEKYAAKEGDPNQLSKEELKLLLQTEFPSLLKGPSTLDELFEELDKNGDGEVSFEEFQVLVKKISQ [F14Q]
a: -1.29

q: Try this variant too: MSAKKSPEELKGIFEFYAAKEGDPNQLSKEELKLLLQTEFPSLLKGPSTLDELFEELDKNGDGEVSFEEFQVLVKKISQ [K16F]
a: -0.087

q: Next: MSAKKSPEELKGIFEKYAAKEGDPNQLSKEELKLLLQTEFPSLLKGPSTLDELFEELDKNGDGEVSFEEFTVLVKKISQ [Q71T]
a: -0.031

q: Now this one: MSAKKSPEEMKGIFEKYAAKEGDPNQLSKEELKLLLQTEFPSLLKGPSTLDELFEELDKNGDGEVSFEEFQVLVKKISQ [L10M]
a: 0.044

q: Try this variant too: MSAKKSPEELKGIVEKYAAKEGDPNQLSKEELKLLLQTEFPSLLKGPSTLDELFEELDKNGDGEVSFEEFQVLVKKISQ [F14V]
a: -0.729

q: Cool, now MSAKKSPEELKGIFEKYAAKEGDPNQLSKEELKLLLQTYFPSLLKGPSTLDELFEELDKNGDGEVSFEEFQVLVKKISQ [E39Y]
a: -0.197

q: Moving on to the next variant: MSAKKSPEELKGIFEKYAAKEGDPNQQSKEELKLLLQTEFPSLLKGPSTLDELFEELDKNGDGEVSFEEFQVLVKKISQ [L27Q]
a: -0.839

q: Please do the same for MSAKKSPEELKGIFEKYAAKEGDPNQLSKEELKLLLQTEFPSLLKGPSTLDELFEELDINGDGEVSFEEFQVLVKKISQ [K59I] as well.
a: -0.105

q: Entry to check: MSAKKSPEELKGIFEKYAAKEGDPNQLSKEELKLLLQTEFPSLLKGPSTLDELFEELDKNGDGEVSFEEFAVLVKKISQ [Q71A]
a: -0.031

q: For MSAKKSPEELKGIFEKYAAKEGDPNQLSKEELKLLLQTEFPSLLKGPSTLDELFEELDKNYDGEVSFEEFQVLVKKISQ [G61Y] then?
a: -0.065

q: Same question, MSAKKSPEELKGIFNKYAAKEGDPNQLSKEELKLLLQTEFPSLLKGPSTLDELFEELDKNGDGEVSFEEFQVLVKKISQ [E15N] this time
a: -0.042

q: And then MSAKKSPEELKGIFEKYAAKEGDPNQLSKEELKLLLQTEFPSLLKGPSTLDELFEELDKNGDVEVSFEEFQVLVKKISQ [G63V] , what is it?
a: -0.079

q: Queued: MSAKKSPEELKGIFEKYAAKEGDPNQLSKEELKLLLQTEFPKLLKGPSTLDELFEELDKNGDGEVSFEEFQVLVKKISQ [S42K]
a: 0.061

q: Then MSAKKSPEELKGIFEKYAAKEGDPNQLEKEELKLLLQTEFPSLLKGPSTLDELFEELDKNGDGEVSFEEFQVLVKKISQ [S28E] ?
a: -0.05

q: One more variant: MSAKKSPEELKGIFEKYAAKEGDPCQLSKEELKLLLQTEFPSLLKGPSTLDELFEELDKNGDGEVSFEEFQVLVKKISQ [N25C]
a: -0.014

q: Same lookup for MSAKKSPEELKGIFEKYAAKEGDPNQLSKEELKLLLQTEFPSLLKGPSTLDELFEELDKNGDGEVSFKEFQVLVKKISQ [E68K] , please.
a: 0.018

q: What would you report for MSAKKSPEELKGIFEKYAAKEGDPNQLSKEELKLLLQTEFPSLLKGPSTLDELFEELDKNQDGEVSFEEFQVLVKKISQ [G61Q] ?
a: -0.021

q: Another: MSAKKSPEELKGIFEKYAAKEGDGNQLSKEELKLLLQTEFPSLLKGPSTLDELFEELDKNGDGEVSFEEFQVLVKKISQ [P24G]
a: -0.031

q: Then MSAKKSPEELKGIFEKYAAKEGDPNQLSKEELKLLLQLEFPSLLKGPSTLDELFEELDKNGDGEVSFEEFQVLVKKISQ [T38L] ?
a: -0.073

q: Next up: MSAKKSPEELKGIFEKYAAKEGDPNQLSKEELTLLLQTEFPSLLKGPSTLDELFEELDKNGDGEVSFEEFQVLVKKISQ [K33T]
a: 0.059

q: Then MSAKKSPEEDKGIFEKYAAKEGDPNQLSKEELKLLLQTEFPSLLKGPSTLDELFEELDKNGDGEVSFEEFQVLVKKISQ [L10D] ?
a: -0.322

q: MSAKKSPEELKGISEKYAAKEGDPNQLSKEELKLLLQTEFPSLLKGPSTLDELFEELDKNGDGEVSFEEFQVLVKKISQ [F14S] , same question.
a: -1.22

q: Please do the same for MSAKKSPEELKGIFEKYAAKEGDPNQLSKEELKLLLQTEFPSLLKGPSTLDELFEELDKNGDHEVSFEEFQVLVKKISQ [G63H] as well.
a: 0.093

q: Next: MSAKKSPEELKGIFEKYPAKEGDPNQLSKEELKLLLQTEFPSLLKGPSTLDELFEELDKNGDGEVSFEEFQVLVKKISQ [A18P]
a: -0.968

q: Queued: MSAKKSPEELKGIFEKYAAKEGDPNQLSKEELKLLLQTEFPSLLKGPSTLDELFEEIDKNGDGEVSFEEFQVLVKKISQ [L57I]
a: 0.156

q: How about MSAKKSPEELKGIFEKYAAKEGDPNQFSKEELKLLLQTEFPSLLKGPSTLDELFEELDKNGDGEVSFEEFQVLVKKISQ [L27F] ?
a: -0.48

q: Please do the same for MSAKKSPEETKGIFEKYAAKEGDPNQLSKEELKLLLQTEFPSLLKGPSTLDELFEELDKNGDGEVSFEEFQVLVKKISQ [L10T] as well.
a: -0.174

q: Let us now turn to MSAKKSPEELKGIFEAYAAKEGDPNQLSKEELKLLLQTEFPSLLKGPSTLDELFEELDKNGDGEVSFEEFQVLVKKISQ [K16A]
a: -0.058

q: Ok, now MSAKKSPEELKGIFEKYAAKEGDPNQLSKEELKLLLQTEFPSLLKGPSTLDELFEELDKNGDGEVSFEEFQVLVKQISQ [K76Q]
a: -0.056

q: What do you get for MSAKKSPEELKGIFEKYAAKEGDPNQLSKEELKLLLQTEFPSLLKGPSTLDELFEELDKNGDGEVSFEIFQVLVKKISQ [E69I] ?
a: -0.055

q: Another: MSAKKSPEELKGIFEKYAAKEGDPNQLSKEELKLLLQTEFPSLLKGPSTLDELFEELDKNGDGEVSFEEFFVLVKKISQ [Q71F]
a: -0.107

q: Also MSAKKSPEELKHIFEKYAAKEGDPNQLSKEELKLLLQTEFPSLLKGPSTLDELFEELDKNGDGEVSFEEFQVLVKKISQ [G12H] , if possible.
a: 0.064

q: # iterate: MSNKKSPEELKGIFEKYAAKEGDPNQLSKEELKLLLQTEFPSLLKGPSTLDELFEELDKNGDGEVSFEEFQVLVKKISQ [A3N]
a: 0.03

q: Entry to check: MSAKKSWEELKGIFEKYAAKEGDPNQLSKEELKLLLQTEFPSLLKGPSTLDELFEELDKNGDGEVSFEEFQVLVKKISQ [P7W]
a: -0.09

q: What do you get for MSAKKSPEELKGIFEKYAAKEGDPNQLSKEELKLLLQTEFPSLLKIPSTLDELFEELDKNGDGEVSFEEFQVLVKKISQ [G46I] ?
a: 0

q: Let us now turn to MSAKKSPEELKGIFEKYAAKEGDPNQLSKEELKLLLQTEFPSLLKGPSTLDELFEELDKNGDGEVSFEEFQVLVKKWSQ [I77W]
a: -0.176

q: Similarly, MSAKKSPEELKGIFEKYAAKHGDPNQLSKEELKLLLQTEFPSLLKGPSTLDELFEELDKNGDGEVSFEEFQVLVKKISQ [E21H] ?
a: -0.014

q: Moving on to MSAKKSPEELKGIFEKYAAKCGDPNQLSKEELKLLLQTEFPSLLKGPSTLDELFEELDKNGDGEVSFEEFQVLVKKISQ [E21C]
a: 0.011

q: Same question for MSAKKSPTELKGIFEKYAAKEGDPNQLSKEELKLLLQTEFPSLLKGPSTLDELFEELDKNGDGEVSFEEFQVLVKKISQ [E8T] please.
a: -0.046

q: Another variant: MSAKKSPEELKGIFEKYAAKEGDPNQLSKEELKLLLQTEPPSLLKGPSTLDELFEELDKNGDGEVSFEEFQVLVKKISQ [F40P]
a: -0.889

q: Another: MSAKKSPEELKGIFEKYAAKEGDPNQLSKEELKLLLQTEFPSLLKGPSTLDELFEELDKNGDGEVSFEEAQVLVKKISQ [F70A]
a: -0.157
